target of assay: T1, cynomolgus (Macaca fascicularis) ST2L extracellular domain with C-terminal His6 tag (Macaca fascicularis (cynomolgus), UniProt Q01638 19-321 (human entry))
T1 construct: also called cyno ST2L-ECD; cynoST2L-ECD
T1 chain: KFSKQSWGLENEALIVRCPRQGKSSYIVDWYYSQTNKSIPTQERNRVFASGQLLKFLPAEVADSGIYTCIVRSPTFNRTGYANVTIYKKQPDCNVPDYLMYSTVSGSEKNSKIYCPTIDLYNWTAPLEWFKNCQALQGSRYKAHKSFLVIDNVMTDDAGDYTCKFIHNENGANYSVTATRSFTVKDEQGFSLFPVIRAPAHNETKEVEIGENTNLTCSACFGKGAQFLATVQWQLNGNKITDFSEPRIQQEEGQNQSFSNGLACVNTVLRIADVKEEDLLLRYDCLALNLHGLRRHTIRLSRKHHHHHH
assay text: ProteOn SPR, mAb captured, ST2L-ECD in solution
Everything with koff lower than 0.007 s⁻¹ is condition not met; everything else, including exactly 0.007 s⁻¹, is condition met.

These solved cases illustrate the format of a correct answer.
binder	class assignment
STLM195 (antibody, V domains shown, C2494 HFA mAb: VH STLH195 + VL STLL272 (O18)) VH: QVQLVQSGAEVKKPGASVKVSCKVSAFNIKDDYMHWVRQAPGKGLEWMGRIDPAIGNTEYAPKFQDRVTMTEDTSTDTAYMELSSLRSEDTAVYYCATGDFYAMDYWGQGTLVTVSS VL: DIQMTQSPSSLSASVGDRVTITCITNTDIDDVIHWYQQKPGKAPKLLIYEGNTLRPGVPSRFSGSGSGTDFTFTISSLQPEDIATYYCLQSDNMLTFGQGTKLEIK	condition met
STLM205 (antibody, V domains shown, C2494 HFA mAb: VH STLH194 + VL STLL272 (O18)) VH: EVQLVQSGAEVKKPGATVKISCKVSAFNIKDDYMHWVQQAPGKGLEWMGRIDPAIGNTEYAEKFQGRVTITADTSTDTAYMELSSLRSEDTAVYYCATGDFYAMDYWGQGTLVTVSS VL: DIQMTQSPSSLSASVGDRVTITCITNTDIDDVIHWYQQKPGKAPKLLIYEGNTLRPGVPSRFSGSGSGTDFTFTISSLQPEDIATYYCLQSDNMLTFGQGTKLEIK	condition not met
STLM199 (antibody, V domains shown, C2494 HFA mAb: VH STLH194 + VL STLL278 (L2)) VH: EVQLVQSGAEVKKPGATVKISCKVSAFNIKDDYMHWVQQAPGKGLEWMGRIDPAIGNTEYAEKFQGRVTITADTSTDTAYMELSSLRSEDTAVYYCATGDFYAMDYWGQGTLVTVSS VL: EIVMTQSPATLSVSPGERATLSCITNTDIDDVIHWYQQKPGQAPRLLIYEGNTLRPGIPARFSGSGSGTEFTLTISSLQSEDFAVYYCLQSDNMLTFGQGTKLEIK	condition not met
STLM193 (antibody, V domains shown, C2494 HFA mAb: VH STLH195 + VL STLL274 (O12)) VH: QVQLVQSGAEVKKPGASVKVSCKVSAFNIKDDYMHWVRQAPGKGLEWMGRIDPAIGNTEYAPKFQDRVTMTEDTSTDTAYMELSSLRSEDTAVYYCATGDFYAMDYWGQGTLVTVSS VL: DIQMTQSPSSLSASVGDRVTITCITNTDIDDVIHWYQQKPGKAPKLLIYEGNTLRPGVPSRFSGSGSGTDFTLTISSLQPEDFATYYCLQSDNMLTFGQGTKLEIK	condition met
STLM204 (antibody, V domains shown, C2494 HFA mAb: VH STLH194 + VL STLL273 (A20)) VH: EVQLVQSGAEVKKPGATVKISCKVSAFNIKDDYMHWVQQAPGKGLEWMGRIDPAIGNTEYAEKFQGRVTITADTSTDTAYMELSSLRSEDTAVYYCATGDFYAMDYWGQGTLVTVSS VL: DIQMTQSPSSLSASVGDRVTITCITNTDIDDVIHWYQQKPGKVPKLLIYEGNTLRPGVPSRFSGSGSGTDFTLTISSLQPEDVATYYCLQSDNMLTFGQGTKLEIK	condition met
STLM191 (antibody, V domains shown, C2494 HFA mAb: VH STLH195 + VL STLL276 (L12)) VH: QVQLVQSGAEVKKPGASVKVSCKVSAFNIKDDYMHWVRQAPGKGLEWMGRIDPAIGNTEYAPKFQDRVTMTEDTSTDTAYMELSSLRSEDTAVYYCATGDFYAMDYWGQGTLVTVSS VL: DIQMTQSPSTLSASVGDRVTITCITNTDIDDVIHWYQQKPGKAPKLLIYEGNTLRPGVPSRFSGSGSGTEFTLTISSLQPDDFATYYCLQSDNMLTFGQGTKLEIK	condition met
STLM194 (antibody, V domains shown, C2494 HFA mAb: VH STLH195 + VL STLL273 (A20)) VH: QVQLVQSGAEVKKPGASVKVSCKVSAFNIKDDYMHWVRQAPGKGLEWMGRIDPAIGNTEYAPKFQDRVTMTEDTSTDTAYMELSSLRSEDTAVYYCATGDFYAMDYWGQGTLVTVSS VL: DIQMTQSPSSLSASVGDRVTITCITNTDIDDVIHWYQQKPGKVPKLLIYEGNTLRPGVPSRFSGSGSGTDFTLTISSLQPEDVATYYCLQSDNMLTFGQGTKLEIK	condition met
STLM62 (antibody, human IgG2, V domains shown, Mouse hybridoma C2494 cloned into human IgG2 background (STLM62); also called C2494) VH: EVQLQQSVAELVRPGASVKLSCTASAFNIKDDYMHWVKQRPEQGLEWIGRIDPAIGNTEYAPKFQDKATMTADTSSNTAYLQLSSLTSEDTAVYYCALGDFYAMDYWGQGTSVTVSS VL: ETTVTQSPASLSVATGEKVTIRCITNTDIDDVIHWYQQKPGEPPKLLISEGNTLRPGVPSRFSSSGYGTDFVFTIENTLSEDVADYYCLQSDNMLTFGAGTKLELK	condition not met

Incoming: Does the reported koff for STLM203 (antibody, V domains shown, C2494 HFA mAb: VH STLH194 + VL STLL274 (O12)) VH: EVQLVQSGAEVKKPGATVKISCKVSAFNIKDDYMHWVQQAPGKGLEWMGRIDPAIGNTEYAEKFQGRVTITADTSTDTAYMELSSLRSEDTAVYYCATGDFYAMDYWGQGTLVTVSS VL: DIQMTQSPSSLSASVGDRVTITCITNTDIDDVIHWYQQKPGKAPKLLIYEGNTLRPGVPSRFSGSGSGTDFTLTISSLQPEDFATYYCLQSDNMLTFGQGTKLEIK fall at or above the 0.007 s⁻¹ mark?
Outgoing: condition not met

Incoming: Does the reported koff for STLM201 (antibody, V domains shown, C2494 HFA mAb: VH STLH194 + VL STLL276 (L12)) VH: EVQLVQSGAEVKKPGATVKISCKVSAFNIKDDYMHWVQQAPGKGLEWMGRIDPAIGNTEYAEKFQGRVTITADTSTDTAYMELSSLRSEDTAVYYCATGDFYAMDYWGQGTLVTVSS VL: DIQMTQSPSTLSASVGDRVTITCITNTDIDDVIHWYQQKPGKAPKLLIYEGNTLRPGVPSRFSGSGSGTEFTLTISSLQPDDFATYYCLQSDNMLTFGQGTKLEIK fall at or above the 0.007 s⁻¹ mark?
Outgoing: condition not met

Incoming: Does the reported koff for STLM200 (antibody, V domains shown, C2494 HFA mAb: VH STLH194 + VL STLL277 (L8)) VH: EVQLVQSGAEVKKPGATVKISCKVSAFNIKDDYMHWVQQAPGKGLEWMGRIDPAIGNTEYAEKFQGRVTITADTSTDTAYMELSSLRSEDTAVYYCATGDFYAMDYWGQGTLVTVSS VL: DIQLTQSPSFLSASVGDRVTITCITNTDIDDVIHWYQQKPGKAPKLLIYEGNTLRPGVPSRFSGSGSGTEFTLTISSLQPEDFATYYCLQSDNMLTFGQGTKLEIK fall at or above the 0.007 s⁻¹ mark?
Outgoing: condition met
